Where these numbers come from: patent US20210032347A1

Molecular target: T1, Human B7-H4 with HisFlag tag (huB7-H4-his) (human, UniProt Q7Z7D3 25-258)
T1 construct: also called HuB7-H4 His protein; huB7-H4-HF
T1 sequence: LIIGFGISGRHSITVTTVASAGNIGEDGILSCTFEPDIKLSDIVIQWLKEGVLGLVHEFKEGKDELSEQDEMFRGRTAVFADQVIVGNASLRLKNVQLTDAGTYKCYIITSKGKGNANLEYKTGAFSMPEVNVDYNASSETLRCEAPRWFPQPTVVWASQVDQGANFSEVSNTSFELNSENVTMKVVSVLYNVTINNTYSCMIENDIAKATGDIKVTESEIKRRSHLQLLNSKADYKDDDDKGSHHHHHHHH
Test: SPR Biacore T200, antibody coupled to CM5 chip, series of huB7-H4-his concentrations, 1:1 model
assay.readout: Kd

Reference set, count: 3
binder: chimeric antibody 2F7 (antibody, human IgG1, V domains shown, also called ch-2F7) VH: EVQLVESGGGLVQPGGSLKLSCAASGFTFSNYYMSWVRQTPEKRLEWVAYVSSGGGSTYYSDSVKGRFTISRDNAKNTLYLQMSSLKPEDTAMYYCTRESYSQGNYFDYWGQGTTLTVSS VL: DIVMTQSPATLSVTPGDRVSLSCRASQSISDYLHWYQQKSHESPRLLIKFASQSISGIPSRFSGSGSGSDFTLSINSVEPEDVGVYYCQNGHSFSLTFGAGTKLELK
assay.readout: Kd
data.value: 68.8 nM

binder: chimeric antibody 2F8 (antibody, human IgG1, V domains shown, also called ch-2F8) VH: QVQLQQPGSVLVRPGASVKLSCKASGYTFTNSWMNWAKLRPGQGLEWIGGIYPNSGNIEYNEKFKGKATLTVDTSSSTAYMDLTSLTSEDSAVYYCARDSRFSYWGQGTLVTVSA VL: DIVMTQSHKFMSTSVGDRVSITCKASQDVRTAVAWYQQKPGQSPKLLISSTSYRYTGVPDRFTGSGSGTDFTFIISSVQAEDLAVYYCQQHYSTPLTFGAGTKLELK
assay.readout: Kd
data.value: 0.119 nM

binder: chimeric antibody 2F4 (antibody, human IgG1, V domains shown, also called ch-2F4) VH: EVQLVESGGGLVKPGGSLKLSCAASGLTFSRYAMSWVRQTPEKRLEWVAGISSGGSYTYYSDTVKGRFTISRDNVRNTLYLQMSSLRSEDTAMYYCGREYGRDYWGQGTSVTVSS VL: DILMTQSPSSMSVSLGDTVSITCHASQGINSNIGWLQQKPGKSFKGLIYHGTNLEDGVPSRFSGSGSGTDYSLTISSLESEDFADYYCVQYAQFPRTFGGGTTLEIK
assay.readout: Kd
data.value: 2.5 nM

Please turn your attention to the following entry.
Task: # input binder: chimeric antibody M1 (antibody, V domains shown, also called ch-M1) VH: EIQLQQSGPELVMPGASVKVSCTASGYPFTTYNMYWVKQSHGKSLEWIAYIDPYNGGTSYNQKFKGKATLTVDKSSSTAYMHLNSLTSEDSAVYYCARSGFYDGYYAWYFDVWGAGTTVTVSS VL: DVVMTQTPLSLPVSLGDQASISCRSSQSLVHSGGNTYLHWYLQKPGQSPKLLIYKVSNRFSGVPDRFSGSGSGTDFTLKISRVEAEDLGVYFCSQSTHVPLTFGAGTKLELK ; wanted: its Kd
Result: 0.14 nM
